ASSAYED_SYSTEM: RSV prefusion F (preF), DS-Cav1 (Respiratory Syncytial Virus)
ASSAY_COMMENT: BLI, IgG on anti-human IgG sensor, 100 nM antigen
# strict inequality: Kd < 1 nM yields true (1), everything else yields false (0)

1. ADI-41162 (antibody, V domains shown) VH: EVQLVQSGAEVKKPGSSVKVSCKASGVTGGTFSSYAISWVRQAPGQGLEWMGGIMPMFGTTNYAQKFQGRVTITADKSTSTAYMELSSLRSEDTAVYYCARDYRDFSPHLDYYYMDVWGKGTTVTVSS VL: DIRLTQSPGTLSLSPGERATLSCRASQSVSTSYLAWYQQKPGQAPRLLIYGASNRATGIPDRFSGSGSGTDFTLTISRLEPEDFAVYYCQQYGRTSWTFGQGTKVDIK ... false (0)
2. ADI-36681 (antibody, V domains shown) VH: EVQLVESGAEVKKPGESLKISCKASGYSFTRYWIGWVRQMPGKGLEWMGIIFPGDSDTRYCPSFEGQVTISADRSINTAYLQWSSLKASDSAMYYCVTLYTDYDYGAPDHWGQGTLVTVSS VL: DIVLTQSPATLSVSPGERATLSCRASQSLSGDLAWYQQKPGQAPRLLIYATSTRATGIPARFSGSGSGAEFTLTISSLQSEDFAVYYCQQYYDWPLLTFGPGTKVEIK ... false (0)
3. ADI-41225 (antibody, V domains shown) VH: EVQLVESGGGLVKPGGSLRLSCAASGFSLSDYYMTWLRQAPGKGLEWVSSIGTTSTYTNYAESVKDRFTISRDNAKNSLYLQMNSLRAEDTAVYYCARDWGFGVERGYFDLWGRGTLVTVSS VL: DIVLTQTPSTLSASVGDRVTITCRASQSISFWLAWYQQKPGKAPKLLIYKASTLESGVPSRFSGRGSGTDFTLTISSLQPDDFATYYCQQYNTYTWTFGQGTKVEIK ... false (0)

## Input Determine whether this binder shows Kd lower than 1 nM (ties excluded): ADI-36680 (antibody, V domains shown) VH: QVTLKESGAELRKPGESLKISCKASGYRFTNYWIGWVRQMPGKGLEWMGVIYPGDSDTKYSPSFQGQVTMSADKSINTAYLQWSSLKASDTAIYYCVSLFGDYDYGALDYWGQGTLVTVSS VL: ETTLTQSPATLSMSPGERATLSCRASQSVGRNLAWYQQKPGQAPRLLIYGASIRATGILARFSGSGSGTEYTLTISSLQPEDFAVYYCQQYHDWPSFTFGPGTKVDIK
## Output true (1)

## Input Is it true that Kd reported for ADI-41180 (antibody, V domains shown) VH: EVQLVQSGGGLVKPGGSLRLSCAASGFTFIDYYMSWIRQAPGKGLEWVSSISGGSTYTTYADSVKGRFTISRDNGKNSLYLQMDSLRAEDTAVYYCARLGGYSYYMDVWGKGTTVTVSS VL: QPVLTQPPSVSGAPGQRVTISCTGSSSNIGAGYDVHWYQHLPGAAPKLLIYDNTNRPSGIPDRFSGSKSGTSASLAITGLQAEDEADYYCQSYDSSLDWVFGGGTKVTVL is less than 1 nM?
## Output true (1)

## Input Answer whether the binder ADI-41147 (antibody, V domains shown) VH: EVQLVESGGGLVKPGGSLRLSCAASGFTLSGYYMSWVRQAPGKGLEWISYISGGSTYTNYADSVNGRFTISRDNAKNSLYLQMDSLRAEDTAVYYCARLEYGDYGPYYLGLWGRGTLVTVSS VL: QSVLTQPPSVSGAPGQRVTISCTGTSSNIGAGYDVHWYQKLPGTAPKLLIYANNNRPSGVPDRFSGSKSGTSASLAITGLQAEDEADYYCQSYDTSLSAHYVFGTGTKLTVL has Kd strictly less than 1 nM
## Output true (1)

## Input hey, is Kd for ADI-41215 (antibody, V domains shown) VH: QVQLVESGGGVVRPGGSLRLSCAASGFTFDDYGMSWVRQAPGKGLEWVSGINWSGGSTDYADSVKGRFTISRDNAKNSLYLQMNSLRAEDTALYYCAKEGQEWELLPWYFDLWGRGTLVTVSS VL: QPVLTQPASVSGSPGQSITIPCTGTSSDVGIYNLVSWYQQHPGKAPKLMIYDVSKRPSGVSNRFSGSKSGNTASLTISGLQAEDEADYYCCSYAGGSTYVFGTGTKLTVL lower than 1 nM or not?
## Output true (1)

## Input # TODO verify Kd < 1 nM strictly for this binder: ADI-41228 (antibody, V domains shown) VH: EVQLLESGPGLVKPSETLSLTCTVSGGSISSYQWNWIRQPPGKGLEWLGYVYYSGSTNYNPSLKSRVTLSVDTSKNQFSLKLSSVTAADTAVYYCARDRRDGSFVFDYWGQGTLVTVSS VL: QSVLIQPASVSGSPGQSITISCTGTSSDVGGYNYVSWYQQHPGKAPKLMIYDVSNRPSGISNRFSGSKSGNTASLTISGLQAEDEADYYCSSYTSSTTLVFGTGTKVTVL
## Output false (0)

## Input Problem: For the binder ADI-41213 (antibody, V domains shown) VH: EVQLVESGGGLIQPGGSLRLSCAASGFTVSSNYMSWVRQAAGKGLEWVSLIYSGDSTYYADSVKGRFTISRDNSQNTLYLQMNSLRAEDTAVYYCARDASPNVGYYGMDVWGQGTTVTVSS VL: DIVLTQPPSVSVSPGQTASITCSGGKLGDTYACWYQQKPGQSPVLVIYQDSKRPSGIPERFSGSNSGNTATLTISGTQAMDEADYYCQAWDSSTARYVFGTGTKVTVL , is Kd under 1 nM?
## Output false (0)

## Input Item ADI-41179 (antibody, V domains shown) VH: QVQLVQSGAEVKKPGSSVKISCKASGGTFSSHPISWVRQAPGQGLEWMGRIVPIFGIANYAQKFQGRVTMIADKSTNTAYMELSNLRSEDTAVYYCANPVYDSSGFQWGQGTLVTVSS VL: QPVLTQPRSVSGSPGQSVTISCTGTSGDGGFYNYVSWYQQHPGKTPKLMIYDVDQRPSGVPDRFSGSKSGNTASLTISGLQAEDEADYYCCSYPGNPLYVFGTGTKVTVL : Kd beneath 1 nM, strictly?
## Output true (1)
